# experimentalDetails: bioavailability of IP3 in pigs: blood concentration of IP3 and AUC after intravenous, intraduodenal or oral administration
# Assay type: in vivo
# testContext: pig, in vivo, po, 1 h
Structures can show the parent of a compound that is named as a salt.
readoutName: concentration

[Q] I have this compound here, O=P(O)(O)O[C@@H]1[C@H](OP(=O)(O)O)[C@H](O)[C@@H](O)[C@H](O)[C@H]1OP(=O)(O)O [sodium salt] , and I need its recorded concentration.
[A] 500 nM

----------
# experimentalDetails: bioavailability of IP3 in pigs: blood concentration of IP3 and AUC after intravenous, intraduodenal or oral administration
# Assay type: in vivo
# testContext: pig, in vivo, iv
Counter-ions that a name gives are not always drawn.
readoutName: concentration at 2 h (µM)
Quick note: give the figure in µM, leave out the unit.

[Q] I'd like to know its concentration at 2 h. The molecule in question is O=P(O)(O)O[C@@H]1[C@H](OP(=O)(O)O)[C@H](O)[C@@H](O)[C@H](O)[C@H]1OP(=O)(O)O [sodium salt]
[A] 9.3
